Molecular target: RXRα:PPARα heterodimer (Homo sapiens)
Sequence (P19793 whole entry): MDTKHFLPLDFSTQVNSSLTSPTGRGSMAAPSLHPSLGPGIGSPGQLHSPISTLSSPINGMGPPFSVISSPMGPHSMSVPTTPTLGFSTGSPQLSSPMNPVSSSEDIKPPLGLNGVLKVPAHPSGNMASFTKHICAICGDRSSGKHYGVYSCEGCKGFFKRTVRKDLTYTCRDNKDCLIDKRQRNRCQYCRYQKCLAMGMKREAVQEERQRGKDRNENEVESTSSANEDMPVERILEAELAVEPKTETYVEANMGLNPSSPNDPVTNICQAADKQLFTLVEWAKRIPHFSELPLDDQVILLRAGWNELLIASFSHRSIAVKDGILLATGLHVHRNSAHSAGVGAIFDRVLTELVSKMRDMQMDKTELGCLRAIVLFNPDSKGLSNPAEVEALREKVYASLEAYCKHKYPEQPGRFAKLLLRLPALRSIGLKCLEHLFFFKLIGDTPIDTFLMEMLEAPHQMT
Sequence (Q07869 whole entry partner): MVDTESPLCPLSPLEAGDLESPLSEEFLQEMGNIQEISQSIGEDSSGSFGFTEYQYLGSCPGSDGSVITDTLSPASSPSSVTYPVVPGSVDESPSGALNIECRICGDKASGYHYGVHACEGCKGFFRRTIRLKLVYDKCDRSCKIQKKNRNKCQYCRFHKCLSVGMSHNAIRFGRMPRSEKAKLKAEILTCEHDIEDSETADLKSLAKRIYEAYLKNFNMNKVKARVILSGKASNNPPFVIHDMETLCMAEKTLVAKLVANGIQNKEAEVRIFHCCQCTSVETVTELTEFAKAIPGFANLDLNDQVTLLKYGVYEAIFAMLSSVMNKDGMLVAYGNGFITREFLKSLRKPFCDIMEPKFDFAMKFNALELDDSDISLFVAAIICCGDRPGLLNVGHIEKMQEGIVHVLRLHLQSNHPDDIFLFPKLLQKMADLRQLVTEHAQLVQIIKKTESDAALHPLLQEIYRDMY
Experiment: RXR heterodimer co-transfection assay (RXRα and PPARα, PPARα response element reporter)
Conditions: normalized luciferase values at 10−5M divided by values with vehicle
METRIC: Fold activation (fold)

See these solved cases before continuing.
| COMPOUND | METRIC | UNIT_ANNOTATION | QUANTITATIVE_READOUT |
| --- | --- | --- | --- |
| CC1(C)CCC(C)(C)c2cc3c(cc21)CCCN3Cc1ccc(C(=O)O)cc1 [Compound 135] | Fold activation | fold | 5 |
| CC1(C)CCC(C)(C)c2cc(C(=NO)c3ccc(C(=O)O)cc3)c(OCc3ccccc3)cc21 [Compound 117] | Fold activation | fold | 9 |

a. CC1(C)CCC(C)(C)c2cc3c(cc21)CCC=C3Cc1ccc(C(=O)O)cc1 [Compound 131]
b. CC(C=CC=C(C)c1cc2c(cc1OCc1ccccc1)C(C)(C)CCC2(C)C)=CC(=O)O [Compound 128]
Could you tell me which of these two has the smaller Fold activation figure? First: a Second: b Identify your pick by its label.
b
(b: 4 fold, a: 7 fold)

---

Target: RXRβ (Mus musculus, UniProt P28704)
Assay: RXR binding, RXRβ
Conditions: -v- tritiated LGD1069 and tritiated 9-cis retinoic acid
METRIC: Kd (nM)

| MOLECULE | Kd [nM] |
| --- | --- |
| CON=C(c1ccc(C(=O)O)cc1)c1cc2c(cc1OCc1ccccc1)C(C)(C)CCC2(C)C [Compound 163] | 6 |
| CCCCCCCOc1c(C(C)C)cc(C(C)C)cc1C(C)C/C=C/C(C)=C/C(=O)O (stereo not drawn) [Compound 148] | 87 |
| CC1(C)CCC(C)(C)c2cc(C(=NO)c3ccc(C(=O)O)cc3)c(OCc3ccccc3)cc21 [Compound 117] | 17 |

A. COc1ccc(COc2cc3c(cc2/C(C)=C/C=C/C(C)=C/C(=O)O)C(C)(C)CCC3(C)C)cc1 [Compound 174]
B. CC1(C)CCC(C)(C)c2cc3c(cc21)CCC=C3Cc1ccc(C(=O)O)cc1 [Compound 131]
Could you tell me which of these two has the smaller Kd figure? First: A Second: B Identify your pick by its label.
A

---

Target: RXRα (Homo sapiens, UniProt P19793)
Sequence (P19793 whole entry): as the sequence (P19793 whole entry) above
Assay: RXR binding, RXRα
Details: -v- tritiated LGD1069 and tritiated 9-cis retinoic acid
pKd: −log10 of the molar value.
METRIC: pKd

| CHEMICAL_STRING | TARGET_SYSTEM | pKd |
| --- | --- | --- |
| CCCOc1cc2c(cc1C1=C(/C=C/C(C)=C/C(=O)O)CCC1)C(C)(C)CCC2(C)C | RXRα (Homo sapiens, UniProt P19793) | 7.68 |

P. C=C(c1ccc(C(=O)O)cc1)c1cccc2cc3c(cc12)C(C)(C)CCC3(C)C
Q. CC1(C)CCC(C)(C)c2cc3c(cc21)CCC=C3Cc1ccc(C(=O)O)cc1
R. CC1(C)CCC(C)(C)c2cc(C(=NO)c3ccc(C(=O)O)cc3)c(OCc3ccccc3)cc21
Let's sort these by pKd, smallest first. Go ahead? Provide your answer as the labels ordered per the instruction.
Q, P, R
(Q: 6.85, P: 7.57, R: 8.52)

---

Target: RXRβ (Mus musculus, UniProt P28704)
Sequence (P28704 1-520): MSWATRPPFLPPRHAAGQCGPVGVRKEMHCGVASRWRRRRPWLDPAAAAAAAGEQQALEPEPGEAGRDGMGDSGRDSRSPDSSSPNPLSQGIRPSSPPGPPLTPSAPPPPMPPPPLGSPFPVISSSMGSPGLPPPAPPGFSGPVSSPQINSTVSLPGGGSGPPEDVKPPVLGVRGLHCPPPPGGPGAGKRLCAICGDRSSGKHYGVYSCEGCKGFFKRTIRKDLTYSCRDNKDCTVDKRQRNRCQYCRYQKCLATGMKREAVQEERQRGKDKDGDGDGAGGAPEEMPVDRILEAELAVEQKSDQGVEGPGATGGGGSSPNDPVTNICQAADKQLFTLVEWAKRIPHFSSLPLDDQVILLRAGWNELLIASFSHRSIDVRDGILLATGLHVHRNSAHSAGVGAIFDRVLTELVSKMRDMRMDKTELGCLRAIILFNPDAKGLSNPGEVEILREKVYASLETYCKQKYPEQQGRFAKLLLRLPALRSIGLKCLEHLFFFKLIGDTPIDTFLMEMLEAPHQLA
Assay: RXR binding, RXRβ
Conditions: -v- tritiated LGD1069 and tritiated 9-cis retinoic acid
pKd: −log10 of the molar value.
METRIC: pKd

See these solved cases before continuing.
| COMPOUND | pKd |
| --- | --- |
| CCCOc1cc2c(cc1C(C)C/C=C/C(C)=C/C(=O)O)C(C)(C)CCC2(C)C (stereo not shown) | 7.68 |
| CCCOc1cc2c(cc1C1CC1C/C=C/C(C)=C/C(=O)O)C(C)(C)CCC2(C)C (stereo not shown) | 7.35 |

P. CCCOc1cc2c(cc1\C(C)=C/C=C/C(C)=C/C(=O)O)C(C)(C)CCC2(C)C
Q. CC1(C)CCC(C)(C)c2cc3c(cc21)CCCN3Cc1ccc(C(=O)O)cc1
Could you tell me which of these two has the smaller pKd figure? First: P Second: Q Identify your pick by its label.
Q

---

Biological target: RXRβ (Mus musculus, UniProt P28704)
Assay: RXR binding, RXRβ
Details: -v- tritiated LGD1069 and tritiated 9-cis retinoic acid
pKd: −log10 of the molar value.
METRIC: pKd

See these solved cases before continuing.
| COMPOUND | QUANTITATIVE_READOUT |
| --- | --- |
| CCCCCCOc1cc2c(cc1/C(C)=C/C=C/C(C)=C/C(=O)O)C(C)(C)CCC2(C)C [Compound 125] | 6.84 |
| CCCOc1cc2c(cc1C1=C(/C=C/C(C)=C/C(=O)O)CCC1)C(C)(C)CCC2(C)C [Compound 158] | 7.28 |
| CCCCCCCOc1c(C(C)C)cc(C(C)C)cc1C(C)C/C=C/C(C)=C\C(=O)O (centres unmarked) [Compound 149] | 7.43 |

1. CCCCCOc1cc2c(cc1/C(C)=C/C=C/C(C)=C/C(=O)O)C(C)(C)CCC2(C)C [Compound 170]
2. CC(C=CC=C(C)c1cc2c(cc1OCc1ccccc1)C(C)(C)CCC2(C)C)=CC(=O)O [Compound 128]
3. C=C(c1ccc(C(=O)O)cc1)c1cccc2cc3c(cc12)C(C)(C)CCC3(C)C [Compound 142]
4. CCCCCCCOc1c(\C(C)=C/C=C/C(C)=C/C(=O)O)cc(C(C)C)cc1C(C)C [Compound 147]
5. CC(C=CC=C(C)c1cc2c(cc1OCC(C)C)C(C)(C)CCC2(C)C)=CC(=O)O [Compound 169]
Let's sort these by pKd, smallest first. Go ahead? Provide your answer as the labels ordered per the instruction.
3, 1, 2, 5, 4
(3: 7.05, 1: 7.39, 2: 7.64, 5: 7.85, 4: 8.10)

---

Biological target: RXRγ (Mus musculus, UniProt P28705)
Sequence (P28705 whole entry): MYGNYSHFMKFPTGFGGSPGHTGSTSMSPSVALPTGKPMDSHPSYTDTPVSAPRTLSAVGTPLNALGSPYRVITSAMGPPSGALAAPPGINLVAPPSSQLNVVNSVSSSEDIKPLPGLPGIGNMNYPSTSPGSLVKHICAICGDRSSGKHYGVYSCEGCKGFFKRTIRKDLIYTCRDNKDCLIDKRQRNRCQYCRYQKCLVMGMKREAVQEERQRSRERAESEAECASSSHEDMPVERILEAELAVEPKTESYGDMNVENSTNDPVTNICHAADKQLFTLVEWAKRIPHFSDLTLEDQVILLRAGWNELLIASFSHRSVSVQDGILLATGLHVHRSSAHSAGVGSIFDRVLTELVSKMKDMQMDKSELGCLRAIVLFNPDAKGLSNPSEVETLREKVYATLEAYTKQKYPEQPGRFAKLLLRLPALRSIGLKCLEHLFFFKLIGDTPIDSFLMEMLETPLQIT
Experiment: RXR binding, RXRγ
Settings: -v- tritiated LGD1069 and tritiated 9-cis retinoic acid
Experimental: Non-specific binding was defined as that binding remaining in the presence of 500 nM of the appropriate unlabelled compound. At the end of the incubation period, bound from free ligand were separated. The amount of bound tritiated retinoids was determined by liquid scintillation counting of an aliquot (700 μL) of the supernatant fluid or the hydroxylapatite pellet. After correcting for non-specific binding, IC50 values were determined. […]
pKd: −log10 of the molar value.
METRIC: pKd

| MOLECULE | pKd |
| --- | --- |
| CCCCCCCOc1c(C(C)C)cc(C(C)C)cc1C(C)C/C=C/C(C)=C/C(=O)O (stereo not drawn) [Compound 148] | 7.08 |
| CCCCCOc1cc2c(cc1/C(C)=C/C=C/C(C)=C/C(=O)O)C(C)(C)CCC2(C)C [Compound 170] | 7.11 |
| CC1(C)CCC(C)(C)c2cc3c(cc21)CCC=C3Cc1ccc(C(=O)O)cc1 [Compound 131] | 6.97 |

---

Biological target: UniProt P19793
Experiment: RXR binding, RXRα
Conditions: -v- tritiated LGD1069 and tritiated 9-cis retinoic acid
Description: Non-specific binding was defined as that binding remaining in the presence of 500 nM of the appropriate unlabelled compound. At the end of the incubation period, bound from free ligand were separated. The amount of bound tritiated retinoids was determined by liquid scintillation counting of an aliquot (700 μL) of the supernatant fluid or the hydroxylapatite pellet. After correcting for non-specific binding, IC50 values were determined. […]
METRIC: Kd (nM)

See these solved cases before continuing.
| COMPOUND | Kd, nM |
| --- | --- |
| CCCCCCCOc1cc2c(cc1\C(C)=C/C=C/C(C)=C/C(=O)O)C(C)(C)CCC2(C)C | 4 |
| CCCCCCCOc1c(/C(C)=C/C=C/C(C)=C/C(=O)O)cc(C(C)C)cc1C(C)C | 46 |

1. COC(C)(c1ccc(C(=O)O)cc1)c1cccc2cc3c(cc12)C(C)(C)CCC3(C)C (stereo not shown)
2. COc1ccc(COc2cc3c(cc2/C(C)=C/C=C/C(C)=C/C(=O)O)C(C)(C)CCC3(C)C)cc1
3. CC(C=CC=C(C)c1cc2c(cc1OCc1ccccc1)C(C)(C)CCC2(C)C)=CC(=O)O
4. CON=C(c1ccc(C(=O)O)cc1)c1cc2c(cc1OCc1ccccc1)C(C)(C)CCC2(C)C
Sort by Kd, descending. Provide your answer as the labels ordered per the instruction.
1, 3, 2, 4
